System: Mus musculus
method-summary: Neurotoxicity in CF1 mouse at 300 mg/kg, ip after 0.5 hrs by rotarod test
Assay type: toxicity, organism-based
Design: dose 300 mg/kg, route intraperitoneal
test-conditions: in vivo

[
  {
    "compound": "CC(CO)(CO)NCC(O)COc1cccc2c(=O)c3ccccc3oc12.Cl (stereo not drawn)",
    "Activity": "25%"
  },
  {
    "compound": "C=CCNCC(O)COc1ccc2oc3ccccc3c(=O)c2c1.Cl (stereo not drawn)",
    "Activity": "Toxic"
  },
  {
    "compound": "CC(C)(CO)NCC(O)COc1cccc2c(=O)c3ccc(Cl)cc3oc12.Cl (stereo not drawn)",
    "Activity": "Toxic"
  },
  {
    "compound": "C=CCNCC(O)COc1cccc2c(=O)c3ccccc3oc12.Cl (stereo not drawn)",
    "Activity": "50%"
  },
  {
    "compound": "CC(C)(CO)NCCCOc1cccc2c(=O)c3ccccc3oc12.Cl",
    "Activity": "25%"
  },
  {
    "compound": "C=CCNCC(O)COc1ccc2c(=O)c3ccccc3oc2c1.Cl (stereo not drawn)",
    "Activity": "Toxic"
  },
  {
    "compound": "C=CCNCCCOc1cccc2c(=O)c3ccccc3oc12.Cl",
    "Activity": "Toxic"
  }
]

This collection of values is drawn from ChEMBL document CHEMBL1143364.
